# TESTED SYSTEM: Fibroblast growth factor 10 (Homo sapiens) (UniProt O15520)
# Sequence (O15520 whole entry, looked up): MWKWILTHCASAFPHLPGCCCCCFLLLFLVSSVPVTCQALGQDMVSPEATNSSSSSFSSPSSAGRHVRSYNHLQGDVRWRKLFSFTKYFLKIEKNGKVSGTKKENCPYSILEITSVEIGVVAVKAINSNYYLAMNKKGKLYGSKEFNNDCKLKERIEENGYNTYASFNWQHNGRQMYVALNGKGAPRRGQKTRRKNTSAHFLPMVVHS
# ASSAY DETAILS: FGF10 binders on small-molecule microarrays, primary screen, biochemical, small-molecule microarray, 635 nm fluorescence (AID 1102)
# PARTICULARS: FGF10 binding, fluorescence 635 nm, higher = more signal
Each entry below carries its reported composite z-score.
Reply with the value as a number alone.

Lookup: Look up and report measured composite z-score for this entry: O=C1O[C@H](c2ccccc2)[C@H](c2ccccc2)N2[C@H]1[C@@H](C(=O)O)[C@]1(C(=O)Nc3ccccc31)[C@H]2c1ccc(OCCO)cc1
Found: 0.141

Lookup: Look up and report measured composite z-score for this entry: C=CCNC(=O)[C@H]1[C@@H]2C(=O)O[C@@H](c3ccccc3)[C@@H](c3ccccc3)N2[C@@H](c2ccc(OCCO)cc2)[C@]12C(=O)N(C(=O)OCCOC)c1ccc(C#CCC(C(=O)OC)C(=O)OC)cc12
Found: 1.44

Lookup: Look up and report measured composite z-score for this entry: Cc1ccc(S[C@]2(C(=O)NCCN3CCOCC3)CC(=O)N(C(C)C)[C@@H]2c2ccc(CO)cc2I)cc1
Found: -0.477

Lookup: Look up and report measured composite z-score for this entry: COC(=O)[C@H](Cc1ccccc1)N1CC(C)(OC)O[C@@H](Cc2ccccc2)[C@H]1/C=C/C1CC1 (stereo partly drawn)
Found: -0.105

Lookup: Look up and report measured composite z-score for this entry: COC(=O)[C@@]1(Cc2ccccc2)[C@H]2c3cc(C(=O)N(C)C)n(CCF)c3C[C@H]2CN1C(=O)c1ccccc1
Found: -0.0624

Lookup: Look up and report measured composite z-score for this entry: COC(=O)c1ccc(OC)c(/C=C\CC(OC(=O)c2ccncc2)c2ccccc2)c1 (stereo not drawn)
Found: 0.377

Lookup: Look up and report measured composite z-score for this entry: COc1ccc(CCNC(=O)[C@@H]2c3ccccc3C(=O)N(Cc3cc(F)cc(C(F)(F)F)c3)[C@H]2c2ccc(CO)cc2)cc1
Found: 0.12

Lookup: Look up and report measured composite z-score for this entry: COC(=O)C[C@H]1O[C@]2(C(=O)N(C)c3ccccc32)[C@@H](C)[C@@H]1[Si](C)(C)c1ccccc1
Found: 0.988

Lookup: Look up and report measured composite z-score for this entry: C=CCNC(=O)[C@@H]1[C@H]2C(=O)O[C@H](c3ccccc3)[C@H](c3ccccc3)N2[C@H](c2ccc(OCCO)cc2)[C@@]12C(=O)Nc1ccc(C#CC3=CCCCC3)cc12
Found: 1.17

Lookup: Look up and report measured composite z-score for this entry: C=C(/C=C\CNS(=O)(=O)c1ccc(C)cc1)[C@H](O)[C@H]1CCCN1S(=O)(=O)c1ccccc1[N+](=O)[O-]
Found: 0.598

Lookup: Look up and report measured composite z-score for this entry: C=CC[C@@]1(C(=O)NCCCOC)N=C(c2ccc(OCCCO)cc2)O[C@@H]1c1ccccc1CN=[N+]=[N-]
Found: 1.38

Lookup: Look up and report measured composite z-score for this entry: O=C(NCC(F)(F)F)[C@@H]1c2ccccc2C(=O)N(Cc2cc(C(F)(F)F)cc(C(F)(F)F)c2)[C@H]1c1ccc(CO)cc1
Found: 0.728

Lookup: Look up and report measured composite z-score for this entry: C=CCOC(=O)[C@@H]1[C@H]2C(=O)O[C@H](c3ccccc3)[C@H](c3ccccc3)N2[C@H](c2ccc(OCCOC(=O)[C@@H]3C[C@@H]4C(=O)N[C@@H](CC(C)C)C(=O)N4[C@@H]3c3ccc(O)cc3)cc2)[C@@]12C(=O)Nc1ccc(I)cc12
Found: 1.37
